# Test system: T-47D breast
# assayNotes: NCI-60 one-dose screen, 48 h
# experimentalSetup: 10 µM
# Description: Growth inhibition of the T-47D human tumor cell line is measured as a screen for anti-cancer activity. Cells are grown in 96 well plates and exposed to the test compound for 48 hours. Compounds are tested at a single concentration, which is 10^-5 M for most compounds. The reported endpoint is percent growth (GI% or GIPRCNT), where numbers from 0 - 100% represent growth inhibition, and numbers from -100% - 0 represent cell death. For example, a value of 40 represents 60% growth inhibition. […]
The panel holds about 83,000 compounds, 20% with a hit somewhere; the sample as a whole holds those more often. Active and inactive are the calls of the source. How the source made its calls: active means growth percent below 10; inactive means the rest.
Thanks in advance; please answer with one of these: true for active, false for inactive

O=C(Cn1cc(CSc2nnc3oc4ccccc4n23)nn1)Nc1ccc(Br)cc1 = false
O=C(Nc1ccc(OCc2ccccc2)cc1)Nc1ccc(Cl)c(C(F)(F)F)c1 = true

Exam item: Given O=C(CSc1nnc(-c2c[nH]c3ccccc23)n1-c1ccccc1)c1ccc(Cl)cc1 , state the outcome it received in this test.
Marked response: false

Exam item: Given Cc1cccc2cc(-c3cc(-c4ccccc4)nc(=S)[nH]3)c(Cl)nc12 , state the outcome it received in this test.
Marked response: false
